Biological target: Receptor-type tyrosine-protein phosphatase gamma (Homo sapiens, UniProt P23470)
Sequence (P23470 whole entry): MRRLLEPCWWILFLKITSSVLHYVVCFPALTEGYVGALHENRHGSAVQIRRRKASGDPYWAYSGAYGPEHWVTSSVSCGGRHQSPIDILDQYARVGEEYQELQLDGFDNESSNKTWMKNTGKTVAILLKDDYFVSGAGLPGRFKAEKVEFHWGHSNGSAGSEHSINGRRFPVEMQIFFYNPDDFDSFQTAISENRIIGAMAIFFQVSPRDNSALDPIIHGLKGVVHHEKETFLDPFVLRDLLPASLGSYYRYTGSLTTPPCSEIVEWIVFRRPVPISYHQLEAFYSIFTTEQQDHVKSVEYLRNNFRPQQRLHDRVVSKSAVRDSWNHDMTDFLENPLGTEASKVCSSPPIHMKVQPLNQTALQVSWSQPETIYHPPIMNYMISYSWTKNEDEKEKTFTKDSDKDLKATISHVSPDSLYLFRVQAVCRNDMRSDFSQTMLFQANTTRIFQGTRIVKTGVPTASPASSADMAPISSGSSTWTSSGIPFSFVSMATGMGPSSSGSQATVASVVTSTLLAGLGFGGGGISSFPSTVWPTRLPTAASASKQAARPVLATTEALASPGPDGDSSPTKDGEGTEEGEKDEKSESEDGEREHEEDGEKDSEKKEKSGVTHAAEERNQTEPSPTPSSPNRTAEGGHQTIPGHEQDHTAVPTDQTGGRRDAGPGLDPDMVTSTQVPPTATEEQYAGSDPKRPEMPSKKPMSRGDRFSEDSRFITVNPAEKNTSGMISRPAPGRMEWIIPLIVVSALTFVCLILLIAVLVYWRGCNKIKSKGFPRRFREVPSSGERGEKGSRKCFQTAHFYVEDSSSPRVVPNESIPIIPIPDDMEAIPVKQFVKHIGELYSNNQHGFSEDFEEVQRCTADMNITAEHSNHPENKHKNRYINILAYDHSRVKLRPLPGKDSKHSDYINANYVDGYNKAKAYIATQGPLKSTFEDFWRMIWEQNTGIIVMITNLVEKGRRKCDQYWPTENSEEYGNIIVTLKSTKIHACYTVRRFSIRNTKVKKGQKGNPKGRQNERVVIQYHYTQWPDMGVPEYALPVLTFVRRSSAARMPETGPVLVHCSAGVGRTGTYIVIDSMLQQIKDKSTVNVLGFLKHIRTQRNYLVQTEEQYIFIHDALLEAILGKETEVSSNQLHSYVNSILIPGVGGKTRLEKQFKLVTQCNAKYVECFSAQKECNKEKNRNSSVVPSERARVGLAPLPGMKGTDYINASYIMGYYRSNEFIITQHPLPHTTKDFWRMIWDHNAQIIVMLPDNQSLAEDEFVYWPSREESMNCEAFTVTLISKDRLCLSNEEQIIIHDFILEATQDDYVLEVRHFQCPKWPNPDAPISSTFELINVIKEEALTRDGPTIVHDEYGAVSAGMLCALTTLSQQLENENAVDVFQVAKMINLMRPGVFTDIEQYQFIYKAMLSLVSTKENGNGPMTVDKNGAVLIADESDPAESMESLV

chem.smiles	IC50
Cc1c(Br)cc(NC(=O)NS(=O)(=O)O)cc1Br	> 10 µM

====

Biological target: Receptor-type tyrosine-protein phosphatase C (Homo sapiens, UniProt P08575)
Sequence (P08575 whole entry): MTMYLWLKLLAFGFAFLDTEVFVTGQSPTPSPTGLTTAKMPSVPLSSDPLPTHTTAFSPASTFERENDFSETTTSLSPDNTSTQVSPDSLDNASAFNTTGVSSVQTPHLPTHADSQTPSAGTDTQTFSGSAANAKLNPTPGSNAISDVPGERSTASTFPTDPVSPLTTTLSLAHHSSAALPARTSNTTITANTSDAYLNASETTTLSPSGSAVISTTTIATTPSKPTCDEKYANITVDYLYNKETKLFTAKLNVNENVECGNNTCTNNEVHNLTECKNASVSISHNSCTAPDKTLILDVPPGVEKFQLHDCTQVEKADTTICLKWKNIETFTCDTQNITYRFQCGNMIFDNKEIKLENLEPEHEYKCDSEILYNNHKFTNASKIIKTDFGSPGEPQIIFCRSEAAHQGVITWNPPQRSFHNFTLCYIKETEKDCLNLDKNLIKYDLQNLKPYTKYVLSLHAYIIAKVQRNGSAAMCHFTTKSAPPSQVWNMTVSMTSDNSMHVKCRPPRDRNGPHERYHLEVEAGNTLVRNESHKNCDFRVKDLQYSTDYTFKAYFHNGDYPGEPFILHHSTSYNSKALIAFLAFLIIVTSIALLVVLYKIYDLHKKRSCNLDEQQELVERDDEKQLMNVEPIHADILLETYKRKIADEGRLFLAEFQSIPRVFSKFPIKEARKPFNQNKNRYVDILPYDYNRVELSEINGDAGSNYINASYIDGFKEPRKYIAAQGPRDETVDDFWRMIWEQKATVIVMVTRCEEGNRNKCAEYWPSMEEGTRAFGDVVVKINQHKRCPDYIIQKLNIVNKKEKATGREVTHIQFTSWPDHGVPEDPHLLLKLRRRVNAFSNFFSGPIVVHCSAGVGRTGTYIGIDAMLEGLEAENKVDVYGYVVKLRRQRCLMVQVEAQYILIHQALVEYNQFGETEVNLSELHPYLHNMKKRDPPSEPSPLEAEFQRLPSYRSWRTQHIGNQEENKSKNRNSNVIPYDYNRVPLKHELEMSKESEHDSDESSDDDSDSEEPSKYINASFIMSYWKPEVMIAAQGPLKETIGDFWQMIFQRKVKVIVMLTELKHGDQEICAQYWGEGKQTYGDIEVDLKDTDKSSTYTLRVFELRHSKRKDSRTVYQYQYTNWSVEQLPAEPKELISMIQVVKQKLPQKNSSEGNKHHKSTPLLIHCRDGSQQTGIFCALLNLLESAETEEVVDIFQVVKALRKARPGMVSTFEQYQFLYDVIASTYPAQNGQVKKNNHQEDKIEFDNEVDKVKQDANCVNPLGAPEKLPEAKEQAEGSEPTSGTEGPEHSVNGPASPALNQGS

chem.smiles	IC50
Cc1c(Br)cc(NC(=O)NS(=O)(=O)O)cc1Br	> 10 µM

From: ChEMBL document CHEMBL5214960
